- Target: UniProtKB Q14524
- Test summary: Peak INa screening assay (tonic block and use-dependent block)
- Type: cell-based
- Condition info: tonic block of Peak INa, 0.1 Hz, holding -100 mV, read-out: Peak TB 3 uM
Form field: inhibition at 3 µM (one value per entry).
Metric: inhibition at 3 µM (%)

Record smiles	Target	Test value
O=C1NCC[C@H]1Oc1noc2ccc(-c3ccc(OC(F)(F)F)cc3)cc12	UniProtKB Q14524	17.7
O=C1CCCN1CCNc1noc2ccc(-c3ccc(OC(F)(F)F)cc3)cc12	UniProtKB Q14524	29.3
Fc1cc(-c2ccc(OC(F)(F)F)cc2)cc2c(OCc3nnc(C4CC4)o3)noc12	UniProtKB Q14524	23.6
CC(C)(C)OC(=O)COc1noc2ccc(-c3ccc(OC(F)(F)F)cc3)cc12	UniProtKB Q14524	15.6
FC(F)(F)Oc1ccc(-c2ccc3onc(NCC4CC4)c3c2)cc1	UniProtKB Q14524	17.3

* * *

- Target: wild-type human cardiac sodium channel, hNav1.5 (Homo sapiens)
- Sequence (Q14524 whole entry): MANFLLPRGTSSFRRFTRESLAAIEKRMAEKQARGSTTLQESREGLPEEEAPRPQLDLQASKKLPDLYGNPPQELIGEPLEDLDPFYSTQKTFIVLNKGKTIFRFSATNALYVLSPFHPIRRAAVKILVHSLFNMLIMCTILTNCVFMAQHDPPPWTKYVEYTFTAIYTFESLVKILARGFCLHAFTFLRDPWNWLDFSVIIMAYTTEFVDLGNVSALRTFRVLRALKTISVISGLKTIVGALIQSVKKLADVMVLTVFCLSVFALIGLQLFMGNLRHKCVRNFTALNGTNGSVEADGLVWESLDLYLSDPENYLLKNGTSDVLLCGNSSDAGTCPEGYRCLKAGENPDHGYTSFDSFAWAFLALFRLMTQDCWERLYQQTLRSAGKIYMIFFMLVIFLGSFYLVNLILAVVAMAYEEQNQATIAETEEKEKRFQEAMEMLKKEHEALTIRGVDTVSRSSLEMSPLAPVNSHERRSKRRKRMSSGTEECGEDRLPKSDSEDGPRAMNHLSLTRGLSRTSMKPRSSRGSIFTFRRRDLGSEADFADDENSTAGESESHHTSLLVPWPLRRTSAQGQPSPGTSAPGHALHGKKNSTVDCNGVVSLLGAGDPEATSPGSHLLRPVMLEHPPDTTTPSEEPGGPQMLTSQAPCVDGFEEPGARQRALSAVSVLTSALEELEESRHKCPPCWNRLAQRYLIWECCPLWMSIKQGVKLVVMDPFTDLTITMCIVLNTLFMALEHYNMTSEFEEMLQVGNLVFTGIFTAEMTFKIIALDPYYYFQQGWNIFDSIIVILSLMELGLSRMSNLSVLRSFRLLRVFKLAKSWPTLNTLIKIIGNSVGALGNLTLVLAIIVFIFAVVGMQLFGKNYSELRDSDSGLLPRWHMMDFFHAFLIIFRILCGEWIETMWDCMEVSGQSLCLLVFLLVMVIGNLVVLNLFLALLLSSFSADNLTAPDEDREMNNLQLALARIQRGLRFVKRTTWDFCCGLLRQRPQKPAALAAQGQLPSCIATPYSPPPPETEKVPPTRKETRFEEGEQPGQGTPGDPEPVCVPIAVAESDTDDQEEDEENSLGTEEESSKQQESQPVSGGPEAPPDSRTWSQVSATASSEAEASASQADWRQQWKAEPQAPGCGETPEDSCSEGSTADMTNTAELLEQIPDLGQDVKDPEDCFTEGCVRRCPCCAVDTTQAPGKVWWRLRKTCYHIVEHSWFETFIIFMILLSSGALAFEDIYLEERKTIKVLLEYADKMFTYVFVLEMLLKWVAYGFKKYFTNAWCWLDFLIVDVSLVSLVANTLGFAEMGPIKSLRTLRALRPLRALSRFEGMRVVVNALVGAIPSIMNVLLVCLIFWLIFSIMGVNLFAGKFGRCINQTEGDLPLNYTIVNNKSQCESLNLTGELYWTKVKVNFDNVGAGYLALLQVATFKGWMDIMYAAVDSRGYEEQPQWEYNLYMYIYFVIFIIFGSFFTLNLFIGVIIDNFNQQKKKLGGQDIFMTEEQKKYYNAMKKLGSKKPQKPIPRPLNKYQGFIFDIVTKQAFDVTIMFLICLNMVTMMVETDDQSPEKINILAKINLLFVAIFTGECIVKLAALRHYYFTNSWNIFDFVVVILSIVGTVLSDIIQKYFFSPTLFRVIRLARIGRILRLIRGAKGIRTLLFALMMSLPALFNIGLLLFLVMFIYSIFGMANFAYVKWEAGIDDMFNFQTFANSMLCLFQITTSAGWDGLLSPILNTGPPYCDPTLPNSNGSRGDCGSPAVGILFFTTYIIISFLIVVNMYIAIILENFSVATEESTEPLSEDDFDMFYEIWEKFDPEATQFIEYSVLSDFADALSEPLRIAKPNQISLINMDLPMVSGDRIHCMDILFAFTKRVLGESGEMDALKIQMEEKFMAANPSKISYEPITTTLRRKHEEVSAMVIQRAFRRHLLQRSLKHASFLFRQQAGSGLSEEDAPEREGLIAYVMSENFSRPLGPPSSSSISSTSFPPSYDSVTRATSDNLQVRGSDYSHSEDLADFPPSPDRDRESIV
- Test summary: Late INa screening assay (QPatch whole cell patch clamp, Tefluthrin-induced late current)
- Format: cell-based
- Condition info: 1 uM; HEK293 hNav1.5; percent block of late INa
Kind request: treat 50% as inclusive, so inhibition at 1 µM at 50% or higher is Yes, anything lower is No.

Record smiles	Target	Class
C[C@@H](N)COc1noc2ccc(-c3ccc(OC(F)(F)F)cc3)cc12	wild-type human cardiac sodium channel, hNav1.5 (Homo sapiens)	Yes
Cc1nnc(COc2noc3ccc(-c4ccc(OC(F)(F)F)cc4)cc23)s1	wild-type human cardiac sodium channel, hNav1.5 (Homo sapiens)	Yes
COc1cc2onc(OCc3ncccn3)c2cc1-c1ccc(F)c(Cl)c1	wild-type human cardiac sodium channel, hNav1.5 (Homo sapiens)	No
O=C(COc1noc2ccc(-c3ccc(OC(F)(F)F)cc3)cc12)N1CCCC1	wild-type human cardiac sodium channel, hNav1.5 (Homo sapiens)	Yes
FC(F)(F)Oc1ccc(-c2ccc3onc(OC[C@H]4COCCN4)c3c2)cc1	wild-type human cardiac sodium channel, hNav1.5 (Homo sapiens)	Yes
FC(F)(F)Oc1ccc(-c2ccc3onc(-n4cnc(-c5ccccc5)c4)c3c2)cc1	wild-type human cardiac sodium channel, hNav1.5 (Homo sapiens)	No
FC(F)(F)Oc1ccc(-c2ccc3onc(OCc4cn[nH]c4)c3c2)cc1	wild-type human cardiac sodium channel, hNav1.5 (Homo sapiens)	No
FC(F)(F)Oc1ccc(-c2ccc3onc(OC[C@@H]4CCCN4)c3c2)cc1	wild-type human cardiac sodium channel, hNav1.5 (Homo sapiens)	Yes
Cc1nnc(COc2noc3c(F)cc(-c4ccc(OC(F)(F)F)cc4)cc23)o1	wild-type human cardiac sodium channel, hNav1.5 (Homo sapiens)	Yes
Cc1cc(-c2ccc(OC(F)(F)F)cc2)cc2c(OCc3ncco3)noc12	wild-type human cardiac sodium channel, hNav1.5 (Homo sapiens)	Yes
Cc1cccnc1COc1noc2ccc(-c3ccc(OC(F)(F)F)cc3)cc12	wild-type human cardiac sodium channel, hNav1.5 (Homo sapiens)	No
CC(C)Nc1noc2ccc(-c3ccc(OC(F)(F)F)cc3)cc12	wild-type human cardiac sodium channel, hNav1.5 (Homo sapiens)	No
CC(=O)N1CCOC[C@@H]1COc1noc2ccc(-c3ccc(OC(F)(F)F)cc3)cc12	wild-type human cardiac sodium channel, hNav1.5 (Homo sapiens)	No
Cc1cc(-c2cc3c(OCc4ncccn4)noc3cc2C)ccc1OC(F)(F)F	wild-type human cardiac sodium channel, hNav1.5 (Homo sapiens)	No
CC(=O)N1CC(COc2noc3ccc(-c4ccc(OC(F)(F)F)cc4)cc23)C1	wild-type human cardiac sodium channel, hNav1.5 (Homo sapiens)	Yes
CC(C)c1nccn1-c1noc2ccc(-c3ccc(OC(F)(F)F)cc3)cc12	wild-type human cardiac sodium channel, hNav1.5 (Homo sapiens)	Yes
COc1ccnc(COc2noc3c(C)cc(-c4ccc(OC(F)(F)F)cc4)cc23)n1	wild-type human cardiac sodium channel, hNav1.5 (Homo sapiens)	No
